I'd be grateful if you could share measured pEC50 for these entries.
target: human CB2 receptors (Homo sapiens (Human)); assay: functional cAMP assay, CHO cells expressing human CB2; type: cell-based; settings: read-out: Human CB2 EC50
Numbers only, as −log10 of the molar value.

Examples from the recorded data:
Lookup: Look at this molecule and give its reported pEC50. CC(C)(O)CNC(=O)c1cc(OCC2CC2)c(C2CC2)cn1 [Example 59]
Found: 7.09

Lookup: Requested field: pEC50. Item: CCC[C@H](CO)NC(=O)c1cc(OCC2CC2)c(Cl)cn1 [Example 13]
Found: 6.84

Lookup: I would be grateful if you could share the reported pEC50 for Cc1nc(C(C)(CS(C)(=O)=O)NC(=O)c2cc(O[C@@H](C)C(F)(F)F)c(N3CC(F)(F)C3)cn2)no1 (some centres unmarked) [Example 102] .
Found: 6.94

Lookup: What measured pEC50 goes with Cc1nc(C(NC(=O)c2cc(O[C@@H](C)C(F)(F)F)c(C3CC3)cn2)C(C)(C)C)no1 (some centres unmarked) [Example 220] ?
Found: 8.57

Batch of 4 molecules: report pEC50 for each.
1. CC(C)(O)CNC(=O)c1cc(OCC(F)(F)F)c(C2CC2)cn1 [Example 60]
2. CC(C)C[C@](C)(CO)NC(=O)c1cc(OCC2CC2)c(Cl)cn1 [Example 28]
3. Cc1nc(C(C)(CC(C)(C)C)NC(=O)c2cc(OCC(F)(F)F)c(C3CC3)cn2)no1 (centres unmarked) [Example 97]
4. CC(C)C[C@@H](CO)NC(=O)c1cc(OCC2CC2)c(Cl)cn1 [Example 7]

Found:
[6.32, 7.58, 8.23, 7.28]

====

target: human CB2 receptors (Homo sapiens (Human), UniProt P34972); test: functional cAMP assay, CHO cells expressing human CB2; type: cell-based; settings: read-out: Human CB2 EC50
Sequence (P34972 whole entry): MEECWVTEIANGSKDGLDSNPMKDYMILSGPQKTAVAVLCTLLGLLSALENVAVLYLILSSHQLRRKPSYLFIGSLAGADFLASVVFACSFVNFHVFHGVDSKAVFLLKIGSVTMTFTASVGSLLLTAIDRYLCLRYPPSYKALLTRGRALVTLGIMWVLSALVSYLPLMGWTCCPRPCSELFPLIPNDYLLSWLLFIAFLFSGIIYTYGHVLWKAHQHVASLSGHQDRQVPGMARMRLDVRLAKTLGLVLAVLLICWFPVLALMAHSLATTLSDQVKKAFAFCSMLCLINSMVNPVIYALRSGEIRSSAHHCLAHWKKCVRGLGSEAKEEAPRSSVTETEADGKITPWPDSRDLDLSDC
Assign pEC50 to each entry below.
Numbers only, as −log10 of the molar value.

Example cases with answers are listed next.
Lookup: Enter reported pEC50 observed with human CB2 receptors (Homo sapiens (Human), UniProt P34972) for O=C(c1cc(OCC(F)(F)F)c(C2CC2)cn1)N1CCCC12COC2 [Example 71]
Found: 6.23

Lookup: Observed pEC50 on human CB2 receptors (Homo sapiens (Human), UniProt P34972) for O=C(N[C@@H](c1cccnc1)C(F)(F)F)c1cc(OCC2CC2)c(Cl)cn1 [Example 22] , please.
Found: 8.24

Lookup: Request body: readout pEC50, system human CB2 receptors (Homo sapiens (Human), UniProt P34972), query Cc1nc(C(C)(COCc2ccccc2)NC(=O)c2cc(OCC(F)(F)F)c(C3CC3)cn2)no1 (stereo not shown) [Example 112] . Return the value.
Found: 7.36

Lookup: Item CNC(=O)[C@H](C)C(C)(C)NC(=O)c1cc(OCC2CC2)c(Cl)cn1 [Example 35] with human CB2 receptors (Homo sapiens (Human), UniProt P34972) - pEC50?
Found: 6.84

Lookup: pEC50 / human CB2 receptors (Homo sapiens (Human), UniProt P34972) / CNC(=O)CC(C)(NC(=O)c1cc(O[C@@H](C)C(F)(F)F)c(C2CC2)cn1)C1CC1 (stereo partly shown) [Example 250]
Found: 7.48

For each entry beneath this line, provide reported pEC50.
1. Cc1nc(C(C)(NC(=O)c2cc(OCC(F)(F)F)c(C3CC3)cn2)C(=O)N2CCC2)no1 (stereo not shown) [Example 182]
2. CNC(=O)C(C)(NC(=O)c1cc(OCC(F)(F)F)c(C2CC2)cn1)c1noc(C)n1 (stereo not shown) [Example 149]
3. Cc1nc(C(NC(=O)c2cc(O[C@@H](C)C(F)(F)F)c(C3CC3)cn2)C2(C)COC2)no1 (stereo partly shown) [Example 254]
4. O=C(NC1(CO)CC1)c1cc(OCC2CC2)c(N2CC(F)(F)C2)cn1 [Example 53]
5. CC(C)(C)NC(=O)c1cc(OCC(F)(F)F)c(C2CC2)cn1 [Example 70]

Found:
1. 8.27
2. 7.90
3. 8.19
4. 7.14
5. 7.98
